Measured values drawn from paper PMC9696974 for this set.

- System: ct-DNA
- Protocol Details: Fluorimetric titration with ct-DNA, Scatchard equation
- Format: binding, calf
- Cond: pH 7, sodium cacodylate buffer, I = 0.05 M
Observation Type: Binding constant logKs ct-DNA
Keep it simple and answer with nothing but the number.

IN: Given C[n+]1ccc(-c2cc3ccc4cccc5ccc(c2)c3c45)cc1 , state its recorded Binding constant logKs ct-DNA.
OUT: 5.5

IN: Given C[n+]1ccc(-c2cc3ccc4cc(-c5cc[n+](C)cc5)cc5ccc(c2)c3c45)cc1 , state its recorded Binding constant logKs ct-DNA.
OUT: 8.8

* * *

- System: UniProtKB P02769
- Sequence (P02769 25-607): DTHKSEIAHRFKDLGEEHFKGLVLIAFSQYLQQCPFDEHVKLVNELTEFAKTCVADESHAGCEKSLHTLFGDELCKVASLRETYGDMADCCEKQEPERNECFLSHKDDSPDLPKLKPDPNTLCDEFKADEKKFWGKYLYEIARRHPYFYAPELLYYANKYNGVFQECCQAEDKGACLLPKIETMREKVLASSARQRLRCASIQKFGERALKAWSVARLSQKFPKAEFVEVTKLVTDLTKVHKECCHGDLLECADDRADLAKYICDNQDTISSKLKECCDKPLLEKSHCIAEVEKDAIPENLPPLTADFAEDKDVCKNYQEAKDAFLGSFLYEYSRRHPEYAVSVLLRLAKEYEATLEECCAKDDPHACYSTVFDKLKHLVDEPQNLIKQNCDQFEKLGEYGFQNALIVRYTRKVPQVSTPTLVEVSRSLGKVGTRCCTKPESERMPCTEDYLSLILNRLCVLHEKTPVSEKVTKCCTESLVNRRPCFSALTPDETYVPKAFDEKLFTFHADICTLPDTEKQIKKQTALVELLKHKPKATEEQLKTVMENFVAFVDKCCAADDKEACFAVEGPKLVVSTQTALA
- Protocol Details: Fluorimetric titration with BSA, Scatchard equation
- Format: binding, bovine
- Cond: pH 7, sodium cacodylate buffer, I = 0.05 M; read-out: Binding constant logKs BSA (converted)
Observation Type: Kd

IN: Given C[n+]1ccc(-c2cc3ccc4cccc5ccc(c2)c3c45)cc1 , state its recorded Kd.
OUT: 3.98 µM

IN: Given C[n+]1ccc(-c2cc3ccc4cc(-c5cc[n+](C)cc5)cc5ccc(c2)c3c45)cc1 , state its recorded Kd.
OUT: 0.126 µM

IN: Given c1cc2ccc3cc(-c4ccncc4)cc4ccc(c1)c2c34 , state its recorded Kd.
OUT: 3.16 µM

IN: Given c1cc(-c2cc3ccc4cc(-c5ccncc5)cc5ccc(c2)c3c45)ccn1 , state its recorded Kd.
OUT: 5.01 µM

* * *

Assign IC50 to each entry below.
- Test system: A549 cells
- Protocol Details: MTT cell viability assay, A549, with or without UV light
- Format: cell-based, human
- Cond: Homo sapiens, light or radiation study; A549, non-irradiated, MTT, 72 h
Your answer is read as µM, so omit the unit and give the number.

IN: Given c1cc2ccc3cc(-c4ccncc4)cc4ccc(c1)c2c34 , state its recorded IC50.
OUT: 8

IN: Given C[n+]1ccc(-c2cc3ccc4cccc5ccc(c2)c3c45)cc1 , state its recorded IC50.
OUT: 1.5

IN: Given C[n+]1ccc(-c2cc3ccc4cc(-c5cc[n+](C)cc5)cc5ccc(c2)c3c45)cc1 , state its recorded IC50.
OUT: 8
